Task for the reader: assign each of the following binders its reported Fold increase in potency compared to AB-H8.
# Measured target: human Siglec-7 on primary human monocyte-derived dendritic cells (human, UniProt Q9Y286 19-467)
# Sequence (Q9Y286 19-467): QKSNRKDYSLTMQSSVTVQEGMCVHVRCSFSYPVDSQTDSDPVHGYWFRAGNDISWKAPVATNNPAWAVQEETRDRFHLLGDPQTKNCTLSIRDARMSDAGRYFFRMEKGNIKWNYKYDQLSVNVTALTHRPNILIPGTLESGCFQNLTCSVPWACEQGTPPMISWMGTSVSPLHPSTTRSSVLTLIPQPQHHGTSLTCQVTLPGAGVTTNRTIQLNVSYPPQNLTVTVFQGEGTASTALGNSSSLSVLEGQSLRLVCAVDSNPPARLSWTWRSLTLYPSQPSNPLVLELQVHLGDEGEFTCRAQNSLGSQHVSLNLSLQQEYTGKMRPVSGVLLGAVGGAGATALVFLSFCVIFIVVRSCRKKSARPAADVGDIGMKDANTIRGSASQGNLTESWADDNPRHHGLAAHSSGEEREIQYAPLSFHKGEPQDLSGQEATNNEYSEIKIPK
# Assay: cell-based or functional assay
Please respond with the number in fold and leave the unit unwritten.

query: Bench note: what Fold increase in potency compared to AB-H8 did S7AB-H8.43 (antibody, V domains shown, also called S7AB-H.43) VH: QVQLVQSGAEVKKPGASVKVSCKASGYAFTGYWMNWVRQAPGQGLEWIGRIFPGLGHTNYAQKFQGRATLTEDTSTSTAYMELSSLRSEDTAVYYCARDYSDYYFDYWGQGTLVTVSS VL: DIQMTQSPSSLSASVGDRVTITCRGSQDINTYLNWYQQKPGKAPKLLIYYTSRLHSGVPSRFSGSGSGTDYTLTISSLQPEDFATYYCQQGNILPWTFGQGTKLEIK show?
result: 10.2

query: Bench note: what Fold increase in potency compared to AB-H8 did S7AB-H8.17 (antibody, V domains shown) VH: QVQLVQSGAEVKKPGASVKVSCKASGYAFTMAWMNWVRQAPGQGLEWIGRIFPGYGHTNYAQKFQGRATLTEDTSTSTAYMELSSLRSEDTAVYYCARDYSDYYFDYWGQGTLVTVSS VL: DIQMTQSPSSLSASVGDRVTITCRGSQDTNTYLNWYQQKPGKAPKLLIYYTSRLHSGVPSRFSGSGSGTDYTLTISSLQPEDFATYYCQQGNTLPWTFGQGTKLEIK show?
result: 2.9

query: Bench note: what Fold increase in potency compared to AB-H8 did S7AB-H8.14 (antibody, V domains shown) VH: QVQLVQSGAEVKKPGASVKVSCKASGYAFTAAWMNWVRQAPGQGLEWIGRIFPGLGHTNYAQKFQGRATLTEDTSTSTAYMELSSLRSEDTAVYYCARDYSDYYFDYWGQGTLVTVSS VL: DIQMTQSPSSLSASVGDRVTITCRGSQDINTYLNWYQQKPGKAPKLLIYYTSRLHSGVPSRFSGSGSGTDYTLTISSLQPEDFATYYCQGGNTLPWTFGQGTKLEIK show?
result: 0.2
